System: PPARg:RXRa (NR concentration 180 nM, RXRa partner concentration 90 nM)
Assay notes: PBM binding z-score (relative to random genomic background probes); higher = stronger binding; sequences stand for … in GC…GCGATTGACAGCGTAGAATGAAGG
Value kind: PBM binding z-score

>>> experimental_result("GCTAGCAGGCCATTTGGGTCACCCAATGACGGGC")
0.947
>>> experimental_result("CGTCCAAGGTCAAGGTCAGTGACAGAGACTCGAA")
6.3
>>> experimental_result("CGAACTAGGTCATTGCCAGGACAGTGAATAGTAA")
6.96
>>> experimental_result("CTCGAAAGGTGGGTTGAGGTGAGTATACGGATAA")
0.158
>>> experimental_result("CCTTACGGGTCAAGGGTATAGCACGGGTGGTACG")
5.03
>>> experimental_result("CGCACTAGGTCAGAACAGGACAGTGAAGGATGAT")
4.7
>>> experimental_result("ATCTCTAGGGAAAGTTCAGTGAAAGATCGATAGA")
0.591
>>> experimental_result("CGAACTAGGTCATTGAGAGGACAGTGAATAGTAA")
7.29
>>> experimental_result("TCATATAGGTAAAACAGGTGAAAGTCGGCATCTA")
1.12
>>> experimental_result("TATACAGGGTCAGAGGCCAGAGTACGAATGTCGA")
5.34
>>> experimental_result("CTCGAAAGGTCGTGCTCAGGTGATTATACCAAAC")
2.63
>>> experimental_result("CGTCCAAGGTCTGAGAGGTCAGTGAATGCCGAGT")
-0.0569
>>> experimental_result("TGAATGAGGTTATAAGATCAGGGTACGTTGCAAA")
1.53
>>> experimental_result("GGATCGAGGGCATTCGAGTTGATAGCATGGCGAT")
0.73
>>> experimental_result("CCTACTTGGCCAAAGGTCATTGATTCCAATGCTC")
9.42
>>> experimental_result("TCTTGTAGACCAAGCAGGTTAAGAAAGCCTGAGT")
-0.307
>>> experimental_result("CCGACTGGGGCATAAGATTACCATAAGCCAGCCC")
1.12
>>> experimental_result("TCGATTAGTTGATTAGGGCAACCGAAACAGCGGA")
0.147
>>> experimental_result("CGTCATAGTTCAACTAAGGTAACGTAAAGCACGC")
1.66
>>> experimental_result("CCTAGTTGGTCAAGGTCACACAGGCTATAGGTAC")
3.32
>>> experimental_result("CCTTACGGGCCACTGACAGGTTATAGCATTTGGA")
0.415
>>> experimental_result("CGTCCAAGGTAAAAGGTCAGTGAAGAGATGACGG")
6.53
>>> experimental_result("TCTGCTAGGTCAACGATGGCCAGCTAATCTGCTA")
2.34
>>> experimental_result("ATATGTAGGTTAAGAGTCATTCAGGTTGGTTCGC")
8.36
